tested system: TBG (thyroxine-binding globulin) (Homo sapiens)
Construct: from tissue; host or cells: human serum, diluted 1/32
Sequence (P05543 21-415): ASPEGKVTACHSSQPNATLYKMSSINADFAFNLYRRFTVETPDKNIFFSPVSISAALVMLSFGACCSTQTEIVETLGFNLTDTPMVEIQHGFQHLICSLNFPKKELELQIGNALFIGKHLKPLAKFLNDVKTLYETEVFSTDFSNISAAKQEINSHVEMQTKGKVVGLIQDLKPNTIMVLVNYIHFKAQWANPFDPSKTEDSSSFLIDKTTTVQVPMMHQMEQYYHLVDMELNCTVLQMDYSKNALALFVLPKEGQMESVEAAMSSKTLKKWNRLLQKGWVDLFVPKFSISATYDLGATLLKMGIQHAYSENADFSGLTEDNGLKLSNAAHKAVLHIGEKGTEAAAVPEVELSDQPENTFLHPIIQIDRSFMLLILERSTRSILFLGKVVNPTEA
procedure summary: Displacement of radioactive T4 from TBG in a CPBA system
Design: unit not given here
Counter-ions that a name gives are not always drawn.
For each of the compounds below, state its AMOUNT T4 DISPLACED FROM TBG.
Reply briefly: the number, and no unit.

Item O=C([O-])c1ccccc1O.[Na+] [Sodium Salicylate] with TBG (thyroxine-binding globulin) (Homo sapiens) - AMOUNT T4 DISPLACED FROM TBG?
6.1

Item CN(C)CCC=C1c2ccccc2COc2ccccc21 [Doxepin HCl] with TBG (thyroxine-binding globulin) (Homo sapiens) - AMOUNT T4 DISPLACED FROM TBG?
8.2

Item O=S(=O)(O)c1cccc2cccc(Nc3ccccc3)c12 with TBG (thyroxine-binding globulin) (Homo sapiens) - AMOUNT T4 DISPLACED FROM TBG?
18

Item CN1CCN(CCCN2c3ccccc3Sc3ccc(Cl)cc32)CC1 with TBG (thyroxine-binding globulin) (Homo sapiens) - AMOUNT T4 DISPLACED FROM TBG?
7.2

Item CN1C(=O)CN=C(c2ccccc2)c2cc(Cl)ccc21 with TBG (thyroxine-binding globulin) (Homo sapiens) - AMOUNT T4 DISPLACED FROM TBG?
6.3

Item CN(C)CCCN1c2ccccc2Sc2ccc(Cl)cc21 [Chlorpromazine HCl] with TBG (thyroxine-binding globulin) (Homo sapiens) - AMOUNT T4 DISPLACED FROM TBG?
5.6

Item C[CH2][Hg][S]c1ccccc1C(=O)[O-].[Na+] with TBG (thyroxine-binding globulin) (Homo sapiens) - AMOUNT T4 DISPLACED FROM TBG?
8.4
